These entries and their values trace back to ChEMBL document CHEMBL4261634.

Molecular target: Free fatty acid receptor 1 (Homo sapiens, UniProt O14842)
Sequence (O14842 whole entry): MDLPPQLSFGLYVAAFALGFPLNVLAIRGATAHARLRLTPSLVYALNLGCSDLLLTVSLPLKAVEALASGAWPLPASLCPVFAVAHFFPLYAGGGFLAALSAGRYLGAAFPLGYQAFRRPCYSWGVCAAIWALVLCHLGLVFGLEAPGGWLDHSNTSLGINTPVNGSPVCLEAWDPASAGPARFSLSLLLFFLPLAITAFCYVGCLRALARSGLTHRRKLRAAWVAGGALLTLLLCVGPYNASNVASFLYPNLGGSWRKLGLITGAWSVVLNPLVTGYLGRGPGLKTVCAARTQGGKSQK
Experiment: Agonist activity at human GPR40 expressed in human HEK293 cells assessed as increase in intracellular calcium flux after 10 mins by fluorescence assay
Type: functional, cell-based
OUTCOME_MEASURE: EC50 (nM)
Answer in nM, number only, no unit symbol.

MOLECULE: CC#C[C@@H](CC(=O)O)c1ccc(OC[C@H]2COc3c(Cl)cccc3O2)cc1
QUANTITATIVE_READOUT: 170

Look up EC50 with Free fatty acid receptor 1 (Homo sapiens, UniProt O14842) for this molecule: O=C(O)CC(c1ccc(F)cc1)c1ccc(OCC2COc3ccc(Cl)cc3O2)cc1 (stereo not given) 4310

Give EC50 (Free fatty acid receptor 1 (Homo sapiens, UniProt O14842)) of the following molecule: CC#C[C@@H](CC(=O)O)c1ccc(OC[C@H]2COc3ccc(OC(C)C)cc3O2)cc1 280

EC50 of Cn1nncc1C(CC(=O)O)c1ccc(OCC2COc3ccc(Cl)cc3O2)cc1 (stereo not given) on Free fatty acid receptor 1 (Homo sapiens, UniProt O14842)? 3870

Look up EC50 with Free fatty acid receptor 1 (Homo sapiens, UniProt O14842) for this molecule: CC#C[C@@H](CC(=O)O)c1ccc(OC[C@H]2COc3ccc(F)cc3O2)cc1 210

Requested read-out EC50, target or system Free fatty acid receptor 1 (Homo sapiens, UniProt O14842), entry O=C(O)CC(c1ccncc1)c1ccc(OCC2COc3ccc(Cl)cc3O2)cc1 (stereo not given) 1170

Which measured EC50 belongs to CC#C[C@@H](CC(=O)O)c1ccc(OC[C@H]2COc3ccc(Br)cc3O2)cc1 , tested on Free fatty acid receptor 1 (Homo sapiens, UniProt O14842)? 210

State its EC50 on Free fatty acid receptor 1 (Homo sapiens, UniProt O14842): O=C(O)CCc1ccc(OCC2COc3cc(Br)ccc3O2)cc1F (stereo not given) 980
